- System: Italian ryegrass (Lolium multiflorum)
- experimental_details: Test A postemergence, visual plant response rating
- Type: in vivo
- test_parameters: Postemergence, 125 g ai/ha; 0 to 100 scale (0 no effect, 100 complete control)
- From the text: […]
Assign Ryegrass, Italian plant response rating to each entry below.

Query: // lookup Ryegrass, Italian plant response rating | system=Italian ryegrass (Lolium multiflorum) | key= Cc1nn(C)c(=O)c(C(=NOCC=CCl)c2ccc(F)c3ccccc23)c1O
Response: 70

Query: // lookup Ryegrass, Italian plant response rating | system=Italian ryegrass (Lolium multiflorum) | key= CON=C(c1cccc(Cl)c1)c1c(O)c(C)nn(C2CC2)c1=O (mixture of isomers)
Response: 10

Query: // lookup Ryegrass, Italian plant response rating | system=Italian ryegrass (Lolium multiflorum) | key= C=CCON=C(c1c(O)c(C)nn(C)c1=O)c1cc(Br)cc2ccccc12 [Compound 114]
Response: 80

Query: // lookup Ryegrass, Italian plant response rating | system=Italian ryegrass (Lolium multiflorum) | key= CCc1ccccc1/C(=N\OC)c1c(O)c(C)nn(C)c1=O
Response: 80

Query: // lookup Ryegrass, Italian plant response rating | system=Italian ryegrass (Lolium multiflorum) | key= C=CCON=C(c1c(O)c(C)nn(C)c1=O)c1cc(Br)cc2ccccc12 [Compound 115]
Response: 80

Query: // lookup Ryegrass, Italian plant response rating | system=Italian ryegrass (Lolium multiflorum) | key= CCO/N=C(/c1ccc(C)cc1)c1c(O)c(C)nn(C)c1=O
Response: 0

Query: // lookup Ryegrass, Italian plant response rating | system=Italian ryegrass (Lolium multiflorum) | key= CO/N=C(\c1cccc(C)c1F)c1c(O)c(C)nn(C)c1=O
Response: 20

Query: // lookup Ryegrass, Italian plant response rating | system=Italian ryegrass (Lolium multiflorum) | key= CCO/N=C(/c1c(O)c(C)nn(C)c1=O)c1ccc(F)c2ccccc12
Response: 90

Query: // lookup Ryegrass, Italian plant response rating | system=Italian ryegrass (Lolium multiflorum) | key= CO/N=C(/c1cccc(Cl)c1)c1c(O)c(C)nn(C)c1=O
Response: 60

###

- System: galium (catchweed bedstraw, Galium aparine)
- experimental_details: Test A postemergence, visual plant response rating
- Assay type: in vivo
- test_parameters: Postemergence, 125 g ai/ha; 0 to 100 scale (0 no effect, 100 complete control)
measure_name: Galium plant response rating
The answer should be a number; do not append a unit.

Query: Given the compound CO/N=C(/c1ccccc1F)c1c(O)c(C)nn(C)c1=O [Compound 34] , what is its reported Galium plant response rating?
Response: 40

Query: Given the compound CON=C(c1cc(Cl)ccc1Cl)c1c(O)c(C)nn(C)c1=O [Compound 90] , what is its reported Galium plant response rating?
Response: 90

Query: Given the compound CCC(=O)Oc1c(C)nn(C)c(=O)c1C(=NOC)c1cccc2ccccc12 , what is its reported Galium plant response rating?
Response: 80

Query: Given the compound Cc1ccc(Cl)cc1/C(=N\O)c1c(O)c(C)nn(C)c1=O , what is its reported Galium plant response rating?
Response: 20

Query: Given the compound C=CCc1ccccc1C(=NOC)c1c(O)c(C)nn(C)c1=O , what is its reported Galium plant response rating?
Response: 60

Query: Given the compound CO/N=C(\c1cccc(C)c1)c1c(O)c(C)nn(C)c1=O , what is its reported Galium plant response rating?
Response: 90

Query: Given the compound CCc1ccccc1C(=NOC)c1c(O)c(C)nn(C)c1=O , what is its reported Galium plant response rating?
Response: 80

Query: Given the compound CCO/N=C(/c1c(O)c(C)nn(C)c1=O)c1cc(Br)cc2ccccc12 , what is its reported Galium plant response rating?
Response: 100

###

- Tested on: ragweed (common ragweed, Ambrosia elatior)
- experimental_details: Test A preemergence, visual plant response rating
- Type: in vivo
- test_parameters: 500 g ai/ha Preemergence; approx. 10 days
measure_name: Ragweed plant response rating (0 to 100 scale)
The answer should be a number; do not append a unit.

Query: Given the compound CON=C(c1cccc(C#N)c1)c1c(O)c(C)nn(C)c1=O , what is its reported Ragweed plant response rating (0 to 100 scale)?
Response: 0

Query: Given the compound CCC(=O)Oc1c(C)nn(C)c(=O)c1C(=NOC)c1cccc2ccccc12 , what is its reported Ragweed plant response rating (0 to 100 scale)?
Response: 100

Query: Given the compound CCO/N=C(/c1c(O)c(C)nn(C)c1=O)c1ccc(F)c2ccccc12 , what is its reported Ragweed plant response rating (0 to 100 scale)?
Response: 100

Query: Given the compound CON=C(c1ccc(F)cc1C)c1c(O)c(C)nn(C)c1=O , what is its reported Ragweed plant response rating (0 to 100 scale)?
Response: 80

Query: Given the compound C=CCO/N=C(/c1c(O)c(C)nn(C)c1=O)c1ccc(F)c2ccccc12 , what is its reported Ragweed plant response rating (0 to 100 scale)?
Response: 90

###

- Tested on: Italian ryegrass (Lolium multiflorum)
- experimental_details: Test A postemergence, visual plant response rating
- Format: in vivo
- test_parameters: 500 g ai/ha, postemergence; 0 is no effect, 100 is complete control
Ryegrass, Italian plant response rating (0 to 100 scale) less than 50 is yes; Ryegrass, Italian plant response rating (0 to 100 scale) greater than or equal to 50 is no.

Query: Hello, is Ryegrass, Italian plant response rating (0 to 100 scale) of the following compound strictly smaller than 50? CON=C(c1ccc(F)cc1C)c1c(O)c(C)nn(C)c1=O
Response: no

Query: Hello, is Ryegrass, Italian plant response rating (0 to 100 scale) of the following compound strictly smaller than 50? CCO/N=C(\c1ccccc1C)c1c(O)c(C)nn(C)c1=O
Response: no

Query: Hello, is Ryegrass, Italian plant response rating (0 to 100 scale) of the following compound strictly smaller than 50? CCc1cccc(/C(=N\OC)c2c(O)c(C)nn(C)c2=O)c1
Response: yes

Query: Hello, is Ryegrass, Italian plant response rating (0 to 100 scale) of the following compound strictly smaller than 50? CO/N=C(/c1ccccc1C(C)C)c1c(O)c(C)nn(C)c1=O
Response: no

Query: Hello, is Ryegrass, Italian plant response rating (0 to 100 scale) of the following compound strictly smaller than 50? CO/N=C(\c1ccc(F)cc1C)c1c(O)c(C)nn(C)c1=O
Response: yes

Query: Hello, is Ryegrass, Italian plant response rating (0 to 100 scale) of the following compound strictly smaller than 50? CON=C(c1cc(C)ccc1Cl)c1c(O)c(C)nn(C)c1=O
Response: yes

Query: Hello, is Ryegrass, Italian plant response rating (0 to 100 scale) of the following compound strictly smaller than 50? CON=C(c1cccc(Cl)c1)c1c(O)c(C)nn(CC2CC2)c1=O (mixture of isomers)
Response: yes

Query: Hello, is Ryegrass, Italian plant response rating (0 to 100 scale) of the following compound strictly smaller than 50? C=CCON=C(c1c(O)c(C)nn(C)c1=O)c1cc(Br)cc2ccccc12
Response: no

Query: Hello, is Ryegrass, Italian plant response rating (0 to 100 scale) of the following compound strictly smaller than 50? CON=C(c1c(O)c(C)nn(C)c1=O)c1ccc(Cl)c2ccccc12
Response: no

Query: Hello, is Ryegrass, Italian plant response rating (0 to 100 scale) of the following compound strictly smaller than 50? CCc1ccccc1/C(=N\OC)c1c(O)c(C)nn(C)c1=O
Response: no

Query: Hello, is Ryegrass, Italian plant response rating (0 to 100 scale) of the following compound strictly smaller than 50? CO/N=C(\c1c(C)cccc1F)c1c(O)c(C)nn(C)c1=O
Response: yes

Query: Hello, is Ryegrass, Italian plant response rating (0 to 100 scale) of the following compound strictly smaller than 50? CO/N=C(/c1ccsc1C)c1c(O)c(C)nn(C)c1=O
Response: yes

Query: Hello, is Ryegrass, Italian plant response rating (0 to 100 scale) of the following compound strictly smaller than 50? CO/N=C(/c1c(O)c(C)nn(C)c1=O)c1cccc2ccccc12
Response: no

Query: Hello, is Ryegrass, Italian plant response rating (0 to 100 scale) of the following compound strictly smaller than 50? CCCO/N=C(\c1c(O)c(C)nn(C)c1=O)c1cccc2ccccc12
Response: no

Query: Hello, is Ryegrass, Italian plant response rating (0 to 100 scale) of the following compound strictly smaller than 50? CO/N=C(\c1csc(C)c1)c1c(O)c(C)nn(C)c1=O
Response: yes

Query: Hello, is Ryegrass, Italian plant response rating (0 to 100 scale) of the following compound strictly smaller than 50? CON=C(c1c(O)c(C)nn(C)c1=O)c1cccc2ccoc12
Response: yes

Query: Hello, is Ryegrass, Italian plant response rating (0 to 100 scale) of the following compound strictly smaller than 50? CCc1ccccc1C(=NOC)c1c(O)c(C)nn(C)c1=O
Response: no

###

Assign Plant response rating, Rice (Flood) to each entry below.
- Tested on: rice (Oryza sativa)
- experimental_details: Test D flooded paddy test, visual plant response rating
- Type: in vivo
- test_parameters: 250 g ai/ha, scale 0 to 100 (0 no effect, 100 complete control), 13 to 15 d
The answer should be a number; do not append a unit.

Query: Given the molecule C#CCO/N=C(\c1cc(Cl)cc(Cl)c1Cl)c1c(O)c(C)nn(C)c1=O [Compound 184] , what is its reported Plant response rating, Rice (Flood)?
Response: 0

Query: Given the molecule Cc1nn(C)c(=O)c(/C(=N/OCCO)c2cccc3cc(Cl)ccc23)c1O [Compound 240] , what is its reported Plant response rating, Rice (Flood)?
Response: 0

Query: Given the molecule C#CCON=C(c1c(O)c(OC)nn(C)c1=O)c1cccc2ccccc12 (mixture of isomers) [Compound 168] , what is its reported Plant response rating, Rice (Flood)?
Response: 0

Query: Given the molecule CO/N=C(/c1cc(F)cc(F)c1C)c1c(O)c(C)nn(C)c1=O [Compound 305] , what is its reported Plant response rating, Rice (Flood)?
Response: 0

Query: Given the molecule CON=C(c1cc(Cl)cc(Cl)c1F)c1c(O)c(C)nn(C)c1=O [Compound 299] , what is its reported Plant response rating, Rice (Flood)?
Response: 45

Query: Given the molecule Cc1nn(C)c(=O)c(C(=NOC(C)C)c2cc(Cl)cc(Cl)c2F)c1O [Compound 167] , what is its reported Plant response rating, Rice (Flood)?
Response: 65

Query: Given the molecule CCO/N=C(\c1c(O)c(Cl)nn(C)c1=O)c1ccc(F)c2ccccc12 [Compound 212] , what is its reported Plant response rating, Rice (Flood)?
Response: 0

Query: Given the molecule CO/N=C(/c1c(O)c(C)nn(C)c1=O)c1cc(SC)cc2ccccc12 [Compound 298] , what is its reported Plant response rating, Rice (Flood)?
Response: 0
